- tgt: T1, hu-CD200R1-iso4-Alt ECD (human)
- T1 construct: also called isoform 4 alt
- T1 chain: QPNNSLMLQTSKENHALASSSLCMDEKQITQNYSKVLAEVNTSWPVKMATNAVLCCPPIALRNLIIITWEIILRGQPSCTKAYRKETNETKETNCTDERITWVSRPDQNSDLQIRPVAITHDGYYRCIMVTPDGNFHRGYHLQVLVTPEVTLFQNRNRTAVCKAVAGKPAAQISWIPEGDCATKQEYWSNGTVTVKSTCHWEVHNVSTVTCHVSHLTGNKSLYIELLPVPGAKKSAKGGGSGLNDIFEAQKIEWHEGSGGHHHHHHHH
- test_protocol: SPR Biacore 8K 37C; antibody on Protein A chip, CD200R1 analyte;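 also: sensorgrams corrected by subtracting reference and buffer signals, then analysed with Biacore 8K Evaluation Software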

binder | koff
h10F6.V1 (antibody, IgG1, V domains shown, differs by 3 residues in the heavy chain CDRs and 1 in the light chain CDRs; also called surrogate antibody) VH: EVQLQESGPGLVKPSETLSLTCTVSGFSLTNYRVSWVRQPPGKGLEWLGVMYAGGGTNYNSVFKSRLTISKDNSKNQVSLKLSSVTAADTAVYYCARERPLTGVMDNWGQGTLVTVSS VL: DIVLTQSPDSLAVSLGERATINCRASESVDYSGNSFMHWFQQKPGQPPKLLIYRASNLESGIPDRFSGSGSRTDFTLTISSLQAEDVAVYYCHQSNWDPPTFGGGTKVEIKR | 0.00117 s⁻¹
h10F6.V4 (antibody, IgG1, V domains shown, IgG1 variant of h10F6) VH: EVQLQESGPGLVKPSETLSLTCTVSGFSLTNYWVSWVRQPPGKGLEWLGTMWAGGGTNYNSVFKSRLTISKDNSKNQVSLKLSSVTAADTAVYYCARERPLTGPMDYWGQGTLVTVSS VL: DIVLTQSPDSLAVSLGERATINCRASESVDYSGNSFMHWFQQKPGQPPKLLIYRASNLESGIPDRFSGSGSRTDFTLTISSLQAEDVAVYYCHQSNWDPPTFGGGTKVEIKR | 0.00387 s⁻¹
h10F6.V2 (antibody, IgG1, V domains shown, IgG1 variant of h10F6) VH: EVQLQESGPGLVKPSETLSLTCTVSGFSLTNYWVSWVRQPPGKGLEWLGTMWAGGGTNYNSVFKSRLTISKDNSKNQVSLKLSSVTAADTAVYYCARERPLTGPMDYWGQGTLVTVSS VL: DIVLTQSPDSLAVSLGERATINCRASESVDYSGNSFMHWFQQKPGQPPKLLIYRASNLESGIPDRFSGSGSRTDFTLTISSLQAEDVAVYYCHQSNEDPPTFGGGTKVEIKR | 0.00425 s⁻¹
h10F6.V3 (antibody, IgG1, V domains shown, IgG1 variant of h10F6) VH: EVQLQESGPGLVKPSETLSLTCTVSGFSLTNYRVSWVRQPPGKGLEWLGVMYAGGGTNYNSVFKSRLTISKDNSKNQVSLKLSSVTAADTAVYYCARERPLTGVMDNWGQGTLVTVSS VL: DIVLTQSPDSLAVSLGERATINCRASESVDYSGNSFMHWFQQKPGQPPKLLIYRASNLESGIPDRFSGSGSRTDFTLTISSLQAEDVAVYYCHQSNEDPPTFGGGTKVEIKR | 0.00191 s⁻¹
